Where do these numbers come from? They come from patent US11053241B2.

TARGET_OF_ASSAY: human TYK2 (JH2domain-pseudokinase) (Homo sapiens (Human), UniProt P29597)
Sequence (P29597 556-888): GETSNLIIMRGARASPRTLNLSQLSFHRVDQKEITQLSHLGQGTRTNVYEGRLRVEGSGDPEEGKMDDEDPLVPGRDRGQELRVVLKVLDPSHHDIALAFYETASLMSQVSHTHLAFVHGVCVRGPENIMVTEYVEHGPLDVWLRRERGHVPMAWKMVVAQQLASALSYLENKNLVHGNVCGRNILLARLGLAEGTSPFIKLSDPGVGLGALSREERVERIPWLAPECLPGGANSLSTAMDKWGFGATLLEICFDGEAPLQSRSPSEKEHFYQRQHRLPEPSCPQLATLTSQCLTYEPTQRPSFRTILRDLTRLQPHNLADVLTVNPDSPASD
ASSAY_SUMMARY: TYK2 JH2 Domain Binding Assay (KINOMEscan)
CONDITION_SET: 11-point 3-fold dilution, top concentration 30,000 nM, duplicate
Procedure: Binding constants for compounds of the present invention against the JH2 domain were determined by the following protocol for a KINOMEscan® assay (DiscoveRx). […] The TYK2(JH2domain-pseudokinase) fusion protein was labeled with a chimeric double-stranded DNA tag containing the NFkB binding site (5′-GGGAATTCCC-3′) fused to an amplicon for qPCR readout, which was added directly to the expression extract (the final concentration of DNA-tag in the binding reaction is 0.1 nM). […]
pKd: −log10 of the molar value.
Measured pKd, listed per entry.

Illustrative cases are given below, each with its answer.
| MOLECULE | READOUT | ASSAY_RESULT |
| --- | --- | --- |
| CNC(=O)c1cnc(NC(=O)C2CC2)c2[nH]c(-c3cccc(-c4cn5c(n4)COCC5)c3F)cc12 | pKd | > 9.70 |
| CNC(=O)c1cnc(NC(=O)C2CC2)c2[nH]c(-c3ccc(C(=O)N4CCC4)cc3F)cc12 | pKd | > 9.70 |
| CNC(=O)c1cnc(NC(=O)C2CC2)c2[nH]c(-c3ccc(-c4ncc(C)n4C)cc3F)cc12 | pKd | > 9.70 |
| CNC(=O)c1cnc(NC(=O)C2CC2)c2[nH]c(-c3cc(-c4csc(C)n4)ccn3)cc12 | pKd | 9.00 to 9.70 |
| CNC(=O)c1cnc(NC(=O)C2CC2)c2[nH]c(-c3cccc(C4CCCO4)c3F)cc12 (stereo not drawn) | pKd | > 9.70 |
| CNC(=O)c1cnc(NC(=O)C2CC2)c2[nH]c(-c3ccc(-c4nccs4)cc3OC)cc12 | pKd | > 9.70 |

Request: Name the recorded pKd of the item "CNC(=O)c1cnc(NC(=O)C2CC2)c2[nH]c(-c3cccc(C4=NC(C)(C)CO4)c3F)cc12" in your answer.
Response: > 9.70

Request: Name the recorded pKd of the item "CNC(=O)c1cnc(NC(=O)C2CC2)c2[nH]c(-c3cccc(N4CCOCC4)c3F)cc12" in your answer.
Response: > 9.70

Request: Name the recorded pKd of the item CNC(=O)c1cnc(NC(=O)C2CC2)c2[nH]c(-c3cccn(C4CCCOC4)c3=O)cc12 (stereo in doubt) [Compound I-56] in your answer.
Response: 9.00 to 9.70
